Origin of the recorded values: the NTF2 design screens of Basanta et al. (2020)

assay_overview: protease stability score; higher = more stable; yeast display proteolysis, trypsin and chymotrypsin;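 also: relative to predicted unfolded state with 0 unfolded-like and 1 meaning tenfold more protease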
readout: protease stability score
Response field accepts a number only; no unit should be typed.

Sample answers from the record:
[in] Given `SEFEEIAHIMIRLFHHAMRTGDEHKLMKNFDPNTRIDVNGVEEHGRENLERHLHHLSRHLRVNDFKVKDVKDVDGRVVIDGIWNGEINGQETDVEVEVIIIKINGQWYIQHLKIK` , state its recorded protease stability score.
[out] 1.03

[in] protease stability score for `DKEEELIRELMEQFTHWLITGNWKKIVDMADPNVQILYNGQEFHGREELHKALQELLEKLGFKHIEIRRKHVVDGRVHLDGRSIINGRRFEVEYISVIINGVIKEIELRVE` ?
[out] 1.95

[in] Requested read-out: protease stability score. Entry: `NELQYKILHALRLFVESLLTGDPTTIERLLDPDARNQWDGVHHVGMEEWSRFLEELRIQIHDLEFKHIEIVDGQLRVDGREDMIIDVNGVRTRTNRKLRLIIVKFDGRWRIESVKVE`
[out] 1.22

[in] Which protease stability score is listed for `DDREEDLHKALHLFRMTMLTGNEDLFRDLADPHTRVSVNGQELIGREHMEHWWKRVDHIEDSRLERVDIVDGVVLVDGRFVGTVNGRRIDTEYTIFAQKVNGQWILHSVKIV` ?
[out] 1.19

Others:
[in] Fill blank: measured protease stability score of the sequence `SEHHEEATEATKHFVHLMRTGDFDRLLELADPHVRVRINGKNLIGREDLDKLWKELGLTNVDVRIDDFSHQGDKVEIHTREHFNGRTVDVIVILEKINGQWVIKRREQR` is ____.
[out] 0.4

[in] Give its protease stability score value. Item: `HDEERELTIVSERIIKIFETGDWEELHKMADPRVKVIVNGRETHGMERYVKHLEQIRTILTNIHLHDVDLQGDFLHIDLEARGRILVNGRDTTFNWELKITIDKFDGRWRMKRINVN`
[out] 2.16
